# Test system: dCK-C3S-S74E
# Sequence (P27707 whole entry S74E, form open): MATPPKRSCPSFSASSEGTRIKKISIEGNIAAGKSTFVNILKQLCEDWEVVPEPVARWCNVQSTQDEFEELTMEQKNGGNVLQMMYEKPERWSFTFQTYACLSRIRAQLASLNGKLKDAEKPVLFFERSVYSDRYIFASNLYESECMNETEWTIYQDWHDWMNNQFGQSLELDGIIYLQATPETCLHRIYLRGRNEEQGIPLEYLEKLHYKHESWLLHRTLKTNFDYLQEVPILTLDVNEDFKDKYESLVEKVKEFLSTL
# Experiment Notes: Thermal shift assay (TSA)
# Condition Label: mean ± SD
Below: a set of entries, each annotated with reported THERMAL SHIFT ASSAY +Tm (°).
Property Label: THERMAL SHIFT ASSAY +Tm (°)

{"Mol": "CCCN(c1nc(-c2nc(N)cc(N)n2)cs1)c1cc(-c2ccc(OCCN3CCN(C)CC3)nc2)ccc1C", "Val": 20.6}
{"Mol": "CCCN(c1nc(-c2nc(N)cc(N)n2)cs1)c1cc(-c2ccc3[nH]ccc3c2)ccc1C", "Val": 16.9}
{"Mol": "Cc1ccc(-c2ccc(S(=O)(=O)N3CCN(C)CC3)cc2)cc1N(CC(C)C)c1nc(-c2nc(N)cc(N)n2)cs1", "Val": 20.5}
{"Mol": "CCCN(c1nc(-c2nc(N)cc(N)n2)cs1)c1cc(-c2ccc(S(=O)(=O)N3CCN(C)CC3)cc2OC)ccc1C", "Val": 19.7}
{"Mol": "COc1cc(-c2ccc(C)c(Nc3nc(-c4nccc(N)n4)cs3)c2)ccc1O", "Val": 13.3}
{"Mol": "Cc1ccc(C#Cc2ccc(CN(C)C)cc2)cc1Nc1nc(-c2nccc(N)n2)cs1", "Val": 15.3}
{"Mol": "Cc1ccc(-c2ccc(S(=O)(=O)N3CCN(C)CC3)cc2)cc1Nc1nc(-c2nc(N)cc(N)n2)cs1", "Val": 18.1}
{"Mol": "CCCN(c1nc(-c2nc(N)cc(N)n2)cs1)c1cc(-c2ccc(S(=O)(=O)N3CCN(C)CC3)cc2)cc(F)c1C", "Val": 17.3}

====

Below: a set of entries, each annotated with reported Enzymatic activity (ATP) Mean (% activity).
# Tested on: dCK-C3S-S74E
# Experiment Notes: Enzymatic assay (PK/LDH coupled), dC phosphorylation by dCK in the presence of ATP
# Assay type: biochemical, human
# Condition Label: 0.31 µM
# Method: For enzymatic assays, cells were re-suspended in 20 mM TRIS, pH 8 500 mM NaCl, 0.1% BRIJ-35 and 5% glycerol buffer and one EDTA free anti-protease tablet was added (Roche). […] Kinetic analyses were performed using a spectrophotometric continuous enzymatic-coupled assay using pyruvate kinase (PK) and lactate dehydrogenase (LDH). […] All measurements were performed on a microplate reader Pherastar FS (BMG Labtech). […]
Property Label: Enzymatic activity (ATP) Mean (% activity) (%)

{"Molecule": "Cc1ccc(NC(=O)c2ccc(CN3CCN(C)CC3)cc2)cc1Nc1nc(-c2nccc(N)n2)cs1 [dCKi1]", "Tgt": "dCK-C3S-S74E", "Uom": "%", "Val": 94.8}
{"Molecule": "CCCN(c1nc(-c2nccc(N)n2)cs1)c1cc(-c2ccc(CCN3CCN(C)CC3)cc2)ccc1C [OR0345]", "Tgt": "dCK-C3S-S74E", "Uom": "%", "Val": 56.9}
{"Molecule": "Cc1ccc(-c2ccc(CN3CCN(C)CC3)cc2)cc1Nc1nc(-c2nccc(N)n2)cs1 [OR0274]", "Tgt": "dCK-C3S-S74E", "Uom": "%", "Val": 81.3}
{"Molecule": "CCCN(c1nc(-c2nc(N)cc(N)n2)cs1)c1cc(-c2ccc(S(=O)(=O)N3CCN(C)CC3)cc2C(F)(F)F)ccc1C [OR0642]", "Tgt": "dCK-C3S-S74E", "Uom": "%", "Val": 8.3}
{"Molecule": "Cc1ccc(-c2ccc(CCN3CCN(C)CC3)cc2)cc1Nc1nc(-c2nccc(N)n2)cs1 [OR0325]", "Tgt": "dCK-C3S-S74E", "Uom": "%", "Val": 73.6}
{"Molecule": "CCCN(c1nc(-c2nc(N)cc(N)n2)cs1)c1cc(-c2ccc(S(=O)(=O)N3CCN(C)CC3)c(OC)c2)ccc1C [OR0635]", "Tgt": "dCK-C3S-S74E", "Uom": "%", "Val": 4.7}
{"Molecule": "Cc1ccc(NC(=O)c2ccc(CN3CCN(C)CC3)cc2)cc1Nc1nc(-c2nc(N)cc(N)n2)cs1 [dCKi2]", "Tgt": "dCK-C3S-S74E", "Uom": "%", "Val": 85.8}
{"Molecule": "CCCN(c1nc(-c2nc(N)cc(N)n2)cs1)c1cc(-c2ccc(CCN3CCN(C)CC3)nc2)ccc1C [OR0602]", "Tgt": "dCK-C3S-S74E", "Uom": "%", "Val": 0.751}
{"Molecule": "CCCN(c1nc(-c2nc(N)cc(N)n2)cs1)c1cc(-c2ccc(CCN3CCN(C)CC3)cc2)ccc1C [OR0600]", "Tgt": "dCK-C3S-S74E", "Uom": "%", "Val": 11.4}

====

Below: a set of entries, each annotated with reported Enzymatic activity (ATP) Mean (% activity).
# Test system: dCK-C3S-S74E
# Experiment Notes: Enzymatic assay (PK/LDH coupled), dC phosphorylation by dCK in the presence of ATP
# Format: biochemical, human
# Condition Label: 0.04 µM
Property Label: Enzymatic activity (ATP) Mean (% activity) (%)

{"Mol": "CCCN(c1nc(-c2nc(N)cc(N)n2)cs1)c1cc(-c2ccc(S(=O)(=O)N3CCN(C)CC3)c(OC)c2)ccc1C", "Tgt": "dCK-C3S-S74E", "Val": 82.4}
{"Mol": "CCCN(c1nc(-c2nc(N)cc(N)n2)cs1)c1cc(-c2ccc(S(=O)(=O)N3CCN(C)CC3)cc2C(F)(F)F)ccc1C", "Tgt": "dCK-C3S-S74E", "Val": 65.5}
{"Mol": "CCCN(c1nc(-c2nccc(N)n2)cs1)c1cc(-c2ccc(CCN3CCN(C)CC3)cc2)ccc1C", "Tgt": "dCK-C3S-S74E", "Val": 96.0}
{"Mol": "CCCN(c1nc(-c2nc(N)cc(N)n2)cs1)c1cc(-c2ccc(CCN3CCN(C)CC3)nc2)ccc1C", "Tgt": "dCK-C3S-S74E", "Val": 81.1}
{"Mol": "CCCN(c1nc(-c2nc(N)cc(N)n2)cs1)c1cc(-c2ccc(CCN3CCN(C)CC3)cc2)ccc1C", "Tgt": "dCK-C3S-S74E", "Val": 92.1}

====

Below: a set of entries, each annotated with reported ΔTm (º) (TSA).
# Test system: dCK-C3S-S74E
# Experiment Notes: Thermal shift assay (TSA)
# Condition Label: Figure 2a, mean

{"Mol": "Cc1ccc(-c2ccc(CCN3CCN(C)CC3)cc2)cc1N(CCC(C)C)c1nc(-c2nc(N)cc(N)n2)cs1", "ΔTm (º) (TSA)": "18.67 º"}
{"Mol": "CCCN(c1nc(-c2nc(N)cc(N)n2)cs1)c1cc(-c2cnc(N)nc2)ccc1C", "ΔTm (º) (TSA)": "14.5 º"}
{"Mol": "CCCN(c1nc(-c2nc(N)cc(N)n2)cs1)c1cc(-c2ccc(S(=O)(=O)C3CCNCC3)cc2)ccc1C", "ΔTm (º) (TSA)": "22.39 º"}
{"Mol": "CCCN(c1nc(-c2nc(N)cc(N)n2)cs1)c1cc(-c2ccc(S(=O)(=O)N3CCN(C)CC3)cc2Cl)ccc1C", "ΔTm (º) (TSA)": "21.11 º"}
{"Mol": "CCCN(c1nc(-c2nc(N)cc(N)n2)cs1)c1cc(-c2ccc(NS(=O)(=O)N3CCN(C)CC3)nc2)ccc1C", "ΔTm (º) (TSA)": "16.82 º"}
{"Mol": "CCCN(c1nc(-c2nc(N)cc(N)n2)cs1)c1cc(-c2ccc(C(=O)OC)nc2)ccc1C", "ΔTm (º) (TSA)": "16.54 º"}
{"Mol": "CCCN(c1nc(-c2nc(N)cc(N)n2)co1)c1cc(-c2ccc(S(=O)(=O)N3CCN(C)CC3)cc2)ccc1C", "ΔTm (º) (TSA)": "18.22 º"}

====

# Tested on: dCK-C3S-S74E
# Experiment Notes: Thermal shift assay (TSA)
# Condition Label: mean ± SD
Output Condition met for THERMAL SHIFT ASSAY +Tm (°) not less than 20 °; output Condition not met otherwise.

{"Molecule": "CCCN(c1nc(-c2nc(N)cc(N)n2)cs1)c1cc(-c2ccc(C(=O)N3CCN(C)CC3)nc2)ccc1C [OR0612]", "Discrete Label": "Condition not met"}
{"Molecule": "CCCN(c1nc(-c2nc(N)cc(N)n2)cs1)c1cc(-c2ccc(CCCN3CCN(C)CC3)cc2)ccc1C [OR0601]", "Discrete Label": "Condition met"}
{"Molecule": "Cc1ccc(Oc2ccc(CN3CCN(C)CC3)cc2)cc1Nc1nc(-c2nccc(N)n2)cs1 [OR0143]", "Discrete Label": "Condition not met"}
{"Molecule": "CN1CCN(CCc2ccc(-c3ccc4c(c3)N(c3nc(-c5nccc(N)n5)cs3)CCCC4)cc2)CC1 [OR0402]", "Discrete Label": "Condition not met"}
{"Molecule": "Cc1ccc(-c2ccc(S(=O)(=O)N3CCN(C)CC3)cc2)cc1N(C)c1nc(-c2nc(N)cc(N)n2)cs1 [OR0631]", "Discrete Label": "Condition not met"}
{"Molecule": "Cc1ccc(-c2ccc(CCN3CCN(C)CC3)cc2)cc1N(CCC(C)C)c1nc(-c2nc(N)cc(N)n2)cs1 [OR0605]", "Discrete Label": "Condition not met"}

Data origin: paper PMC10227015
